Measured values drawn from paper PMC10786919 for this set.

- experimental-details: in vitro
- setup-conditions: Nanoclick permeability assay EC50
Positions of bridges follow the written chain, without caps; N, C: chain ends. Non-standard residues stand in square brackets, D forms with d. Residues, ends and D or L forms follow the SMILES beside them. Lys(N3) = [N-]=[N+]=NCCCC[C@H](N)C(=O)O; R8 = C=CCCCCCC[C@@](C)(N)C(=O)O; Cba = N[C@@H](CC1CCC1)C(=O)O; S5 = C=CCCC[C@](C)(N)C(=O)O; βAla = NCCC(=O)O
experimental-endpoint: cell entry EC50 (µM)
Give bare numbers, in µM.

Qu. Tell us which cell entry EC50 value is on record for CC(=O)N[C@@H](CCCCN=[N+]=[N-])C(=O)NCCC(=O)N[C@@H](CO)C(=O)N[C@H](C(=O)N[C@@H](Cc1ccccc1)C(=O)N[C@]1(C)CCCCCCC=CCCC[C@@](C)(C(=O)N[C@@H](CO)C(=O)N[C@@H](CO)C(=O)N[C@@H](CO)C(N)=O)NC(=O)[C@H](CC2CCC2)NC(=O)[C@H](CCC(N)=O)NC(=O)[C@H](CO)NC(=O)[C@H](Cc2c[nH]c3ccccc23)NC(=O)[C@H](Cc2ccc(O)cc2)NC(=O)[C@H](CO)NC1=O)[C@@H](C)O [MP-667] (Ac-[Lys(N3)][βAla]STF[R8]SYWSQ[Cba][S5]SSS-NH2; staple 6-13)
Ans. 2.23

###

- Tested on: HCT116 cells
- experimental-details: Lactate dehydrogenase (LDH) release assay
- Assay type: cell-based
Positions of bridges follow the written chain, without caps; N, C: chain ends. Non-standard residues stand in square brackets, D forms with d. Residues, ends and D or L forms follow the SMILES beside them. Lys(N3) = [N-]=[N+]=NCCCC[C@H](N)C(=O)O; R8 = C=CCCCCCC[C@@](C)(N)C(=O)O; Cba = N[C@@H](CC1CCC1)C(=O)O; S5 = C=CCCC[C@](C)(N)C(=O)O; βAla = NCCC(=O)O
Provide the recorded LDH: Cytotoxicity assay: % Effect for the entries that follow.
Just the number plus its unit, please.

compound	target-or-test-system	result
CC(=O)N[C@@H](CCCCN=[N+]=[N-])C(=O)NCCC(=O)N[C@@H](CC(C)C)C(=O)N[C@H](C(=O)N[C@@H](Cc1ccccc1)C(=O)N[C@]1(C)CCCCCCC=CCCC[C@@](C)(C(N)=O)NC(=O)[C@H](CC2CCC2)NC(=O)[C@H](CCC(N)=O)NC(=O)[C@H](C)NC(=O)[C@H](Cc2c[nH]c3ccccc23)NC(=O)[C@H](Cc2ccc(O)cc2)NC(=O)[C@H](CCC(=O)O)NC1=O)[C@@H](C)O [MP-326] (Ac-[Lys(N3)][βAla]LTF[R8]EYWAQ[Cba][S5]-NH2; staple 6-13)	HCT116 cells	7.44%

Now consider the entry below.
Qu. Provide LDH: Cytotoxicity assay: % Effect value for the following compound: CC(C)C[C@@H]1NC(=O)[C@H](C)NC(=O)[C@H](Cc2c[nH]c3ccccc23)NC(=O)[C@H](Cc2ccc(O)cc2)NC(=O)[C@H](CCC(=O)O)NC(=O)[C@](C)(NC(=O)[C@H](Cc2ccccc2)NC(=O)[C@H](CO)NC(=O)[C@@H](NC(=O)CCNC(=O)[C@@H](N)CCCCN=[N+]=[N-])[C@@H](C)O)CCCCCCC=CCCC[C@@](C)(C(N)=O)NC(=O)[C@H](CC(C)C)NC1=O
Ans. -0.29%

###

- experimental-details: Lactate dehydrogenase (LDH) release assay
- Assay type: cell-based
- setup-conditions: LDH: Cytotoxicity assay: EC50
pEC50: −log10 of the molar value.
experimental-endpoint: pEC50

Qu. For the compound CC(C)C[C@H](NC(=O)CCNC(=O)[C@@H](N)CCCCN=[N+]=[N-])C(=O)N[C@H](C(=O)N[C@@H](Cc1ccccc1)C(=O)N[C@]1(C)CCCCCCC=CCCC[C@@](C)(C(=O)N[C@@H](CO)C(=O)N[C@@H](C)C(=O)N[C@@H](C)C(N)=O)NC(=O)[C@H](CC2CCC2)NC(=O)[C@H](CCC(N)=O)NC(=O)[C@H](C)NC(=O)[C@H](Cc2c[nH]c3ccccc23)NC(=O)[C@H](Cc2ccc(O)cc2)NC(=O)[C@H](CCC(=O)O)NC1=O)[C@@H](C)O [MP-618] , report pEC50.
Ans. < 4.29

###

- experimental-details: in vitro
- setup-conditions: Nanoclick permeability assay EC50
Positions of bridges follow the written chain, without caps; N, C: chain ends. Non-standard residues stand in square brackets, D forms with d. Residues, ends and D or L forms follow the SMILES beside them. Lys(N3) = [N-]=[N+]=NCCCC[C@H](N)C(=O)O; R8 = C=CCCCCCC[C@@](C)(N)C(=O)O; Cba = N[C@@H](CC1CCC1)C(=O)O; S5 = C=CCCC[C@](C)(N)C(=O)O; βAla = NCCC(=O)O
experimental-endpoint: cell entry EC50 (nM)
Answers are plain numbers, in nM.

molecule	unit	cell entry EC50
CC(=O)N[C@@H](CCCCN=[N+]=[N-])C(=O)NCCC(=O)N[C@@H](CC(C)C)C(=O)N[C@H](C(=O)N[C@@H](Cc1ccccc1)C(=O)N[C@@]1(C)CCCCCCC=CCCC[C@@](C)(C(=O)N[C@@H](CO)C(=O)N[C@@H](C)C(=O)N[C@@H](C)C(N)=O)NC(=O)[C@H](CC2CCC2)NC(=O)[C@H](CCC(N)=O)N(C)C(=O)[C@H](C)NC(=O)[C@H](Cc2c[nH]c3ccccc23)NC(=O)[C@H](Cc2ccc(O)cc2)NC(=O)[C@H](CCC(=O)O)NC1=O)[C@@H](C)O [MP-297]	nM	1530
CC(=O)N[C@@H](CCCCN=[N+]=[N-])C(=O)NCCC(=O)N[C@@H](CC(C)C)C(=O)N[C@H](C(=O)N[C@@H](Cc1ccccc1)C(=O)N[C@]1(C)CCCCCCC=CCCC[C@@](C)(C(=O)N[C@@H](CO)C(=O)N[C@@H](C)C(=O)N[C@@H](C)C(N)=O)NC(=O)[C@H](CC2CCC2)NC(=O)[C@H](CCC(N)=O)NC(=O)[C@H](C)NC(=O)[C@H](CCC(=O)O)NC(=O)[C@H](Cc2ccc(O)cc2)NC(=O)[C@H](CCC(=O)O)NC1=O)[C@@H](C)O [MP-956]	nM	9220
CC(=O)N[C@@H](CCCCN=[N+]=[N-])C(=O)NCCC(=O)N[C@@H](CC(C)C)C(=O)N[C@H](C(=O)N[C@@H](Cc1ccccc1)C(=O)N[C@]1(C)CCCCCCC=CCCC[C@@](C)(C(=O)N[C@H](C)C(=O)N[C@@H](C)C(=O)N[C@@H](C)C(N)=O)NC(=O)[C@H](CC2CCC2)NC(=O)[C@H](CCC(N)=O)NC(=O)[C@H](C)NC(=O)[C@H](Cc2c[nH]c3ccccc23)NC(=O)[C@H](Cc2ccc(O)cc2)NC(=O)[C@H](CCC(=O)O)NC1=O)[C@@H](C)O [MP-475] (Ac-[Lys(N3)][βAla]LTF[R8]EYWAQ[Cba][S5][dA]AA-NH2; staple 6-13)	nM	155
CC(=O)N[C@@H](CCCCN=[N+]=[N-])C(=O)NCCC(=O)N[C@@H](CC(C)C)C(=O)N[C@H](C(=O)N[C@@H](Cc1ccccc1)C(=O)N[C@]1(C)CCCCCCC=CCCC[C@@](C)(C(=O)N[C@@H](CO)C(=O)N[C@@H](C)C(=O)N[C@@H](C)C(N)=O)NC(=O)[C@H](CC2CCC2)NC(=O)[C@H](CCC(N)=O)NC(=O)C(C)(C)NC(=O)[C@H](Cc2c[nH]c3ccccc23)NC(=O)[C@H](Cc2ccc(O)cc2)NC(=O)[C@H](CCC(=O)O)NC1=O)[C@@H](C)O [MP-170]	nM	549

Give me cell entry EC50 for each of these molecules, listed below.
1. CC(=O)N[C@@H](CCCCN=[N+]=[N-])C(=O)NCCC(=O)N[C@@H](CC(C)C)C(=O)N[C@H](C(=O)N[C@@H](Cc1ccccc1)C(=O)N[C@]1(C)CCCCCCC=CCCC[C@@](C)(C(=O)N[C@@H](CCC(=O)O)C(=O)N[C@@H](C)C(=O)N[C@@H](C)C(N)=O)NC(=O)[C@H](CC2CCC2)NC(=O)[C@H](CCC(N)=O)NC(=O)[C@H](C)NC(=O)[C@H](Cc2c[nH]c3ccccc23)NC(=O)[C@H](Cc2ccc(O)cc2)NC(=O)[C@H](CCC(=O)O)NC1=O)[C@@H](C)O [MP-182]
2. CC(C)C[C@@H]1NC(=O)[C@H](C)NC(=O)[C@H](Cc2c[nH]c3ccccc23)NC(=O)[C@H](Cc2ccc(O)cc2)NC(=O)[C@H](CCC(=O)O)NC(=O)[C@](C)(NC(=O)[C@H](Cc2ccccc2)NC(=O)[C@H](CO)NC(=O)[C@@H](NC(=O)[C@H](CO)NC(=O)[C@@H](N)CCCCN=[N+]=[N-])[C@@H](C)O)CCCCCCC=CCCC[C@@](C)(C(N)=O)NC(=O)[C@H](CC(C)C)NC1=O [MP-0178]
3. CC(=O)N[C@@H](CCCCN=[N+]=[N-])C(=O)NCCC(=O)N[C@@H](CC(C)C)C(=O)N[C@H](C(=O)N[C@@H](Cc1ccccc1)C(=O)N[C@]1(C)CCCCCCC=CCCC[C@@](C)(C(=O)N[C@@H](CO)C(=O)N[C@@H](C)C(=O)N[C@@H](C)C(N)=O)NC(=O)[C@H](CC2CCC2)NC(=O)[C@H](CCC(N)=O)NC(=O)[C@H](C)NC(=O)[C@H](Cc2c[nH]c3ccccc23)NC(=O)[C@H](Cc2ccc(O)cc2)NC(=O)[C@@H](C)NC1=O)[C@@H](C)O [MP-473] (Ac-[Lys(N3)][βAla]LTF[R8][dA]YWAQ[Cba][S5]SAA-NH2; staple 6-13)
4. CC(C)C[C@@H]1NC(=O)[C@H](C)NC(=O)[C@H](Cc2c[nH]c3ccccc23)NC(=O)[C@H](Cc2ccc(O)cc2)NC(=O)[C@H](CCC(=O)O)NC(=O)[C@](C)(NC(=O)[C@H](Cc2ccccc2)NC(=O)[C@H](CO)NC(=O)[C@@H](NC(=O)[C@H](CO)NC(=O)CNC(=O)[C@@H](N)CCCCN=[N+]=[N-])[C@@H](C)O)CCCCCCC=CCCC[C@@](C)(C(N)=O)NC(=O)[C@H](CC(C)C)NC1=O [MP-0179]
5. CC(=O)N[C@@H](CCCCN=[N+]=[N-])C(=O)NCCC(=O)N[C@@H](CC(C)C)C(=O)N[C@H](C(=O)N[C@@H](Cc1ccccc1)C(=O)N[C@]1(C)CCCCCCC=CCCC[C@@](C)(C(=O)N[C@@H](CO)C(=O)N[C@@H](C)C(=O)N[C@@H](C)C(N)=O)NC(=O)[C@H](CC2CCC2)NC(=O)[C@H](CCC(N)=O)NC(=O)[C@H](C)NC(=O)[C@H](Cc2c[nH]c3ccccc23)NC(=O)[C@@H](CCC(=O)O)NC(=O)[C@H](C)NC1=O)[C@@H](C)O [MP-036] (Ac-[Lys(N3)][βAla]LTF[R8]A[dE]WAQ[Cba][S5]SAA-NH2; staple 6-13)

Ans.
223
1310
197
503
53
